Test system: ACHN
Experiment: NCI tumour cell line growth inhibition, 48 h
Calls of active or inactive are those of the source. Rule as the data show it: active = GI50 up to about 1.1 µM and inactive = higher.
measured_metric: GI50

These solved cases illustrate the format of a correct answer.
# compound, GI50
rows = [
    ("O=C(CC(=O)C(F)(F)F)c1csc2ccccc12", "34.5 µM (inactive)"),
    ("Fc1ccc(OCc2ccc3nc(-c4ccccc4)c(Cl)nc3c2)cc1", "25.4 µM (inactive)"),
]

Give recorded GI50 with ACHN for the following compound: CCc1n[nH]c(=O)n1-c1ccncc1
> 100 µM (inactive)

Give recorded GI50 with ACHN for the following compound: CC(=O)OCC(=O)O[C@@H]1[C@H]2[C@@H](OC(=O)c3ccccc3)[C@@H](C)C[C@]2(O)[C@H](OC(C)=O)[C@@]2(C)C[C@]1(OC(C)=O)C[C@H]1C(=O)C(C)(C)[C@@H](OC(C)=O)[C@@H]12
> 25 µM (inactive)

Give recorded GI50 with ACHN for the following compound: COc1ccc2c(c1)c1c(n2CCN(C)C)-c2ccccc2CC1
16.4 µM (inactive)

Give recorded GI50 with ACHN for the following compound: O=c1oc2ccccc2c2c(=O)c3ccc(OC/C(=N/O)c4ccc(Cl)cc4)cc3oc12
5.85 µM (inactive)

Give recorded GI50 with ACHN for the following compound: C[C@@H]1CC(=O)[C@@]2(C)[C@](O)(CCC3O[C@]32C)[C@@]12CC(c1ccoc1)OC2=O (stereo partly specified)
70.6 µM (inactive)
